B1: tRNA (parent)
chain: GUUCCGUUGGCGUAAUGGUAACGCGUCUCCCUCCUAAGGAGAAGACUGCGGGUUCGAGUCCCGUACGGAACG

# Variants of: B1
# assay-summary: yeast fitness relative to wild type (ratio to wild type); higher = fitter; tRNA-Arg(CCU), competitive growth, 37 C, YPD
Variants at the floor of the assay were thinned out.
value-kind: yeast fitness

1) GUUCCGUUGGAGUAAUGGUAACGCGUCUCCCUCCUAAGGAGAAGGCUGCGGGUUCGAGUCCCGUACGGAACG [C11A A45G]; 0.603
2) GUUCCGUUGGCGUAAUGGUAACGCGUCUCCCUCCUAAGGAGAAGACUGUGGGCUCGAGUCCCGUACGGCACG [C49U U53C A69C]; 0.597
3) GUUCCGUUGGCGUAAUGGUAACGCGUCUCUCUCCUAAGGAGAAGACUGCGGCUUCGAGUCCCGUACGGAACG [C30U G52C]; 0.593
4) GUUCCGUUGGCAUAAUGGUAACGCGUCUCCCUCCUAAGGAGAACACUGCAGGUUCGAGUCCCGUACGGAACG [G12A G44C G50A]; 0.608
5) GUUCCGUUGGCCUAAUGGUAACGCGUCUCCCUCCUAAGGAGAAGACUGCGGGUUCGAGUACCGUACGGAACG [G12C C60A]; 0.588
6) GUUCCGUUGGCGUAUUGGUAACGCGUCUCCCUCCUAAGGAGAAGACUGCGGGUUCGUGUCCCGUCCGGAACG [A15U A57U A65C]; 0.586
7) GUUCCGUUGGCGUAAUGGUAACGCGUCUCCCUCCUAAGGAGAAGACUGCGGGUUCGAGUCCGGUACCGAACG [C62G G67C]; 0.614
